Test system: primary human hepatocytes (HH1)
Assay: Toxicity to primary human hepatocytes
Type: cell-based
Conditions: 24 h, MTT; read-out: IC50 ± SD, HH1 (toxicity to primary human hepatocytes)
pIC50: −log10 of the molar value.
The reader will find reported pIC50 values listed item by item below.

{"columns": ["Molecule", "Result operator", "pIC50"],
 "data": [
  ["O.O=[N+]([O-])[O-].O=c1c([O-])c(-c2ccccc2)[nH]c2ccccc12.[Cu+2].c1cnc2c(c1)ccc1cccnc12 [compound 1, [Cu(qui)(phen)]NO3 · H2O]", "<", 5.00],
  ["O.O=[N+]([O-])[O-].O=c1c([O-])c(-c2ccccc2)[nH]c2ccccc12.[Cu+2].c1ccc(-c2ccnc3c2ccc2c(-c4ccccc4)ccnc23)cc1 [compound 5, [Cu(qui)(bphen)]NO3 · H2O]", "=", 5.44],
  ["Cc1cc2cccnc2c2ncccc12.O.O=[N+]([O-])[O-].O=c1c([O-])c(-c2ccccc2)[nH]c2ccccc12.[Cu+2] [compound 3, [Cu(qui)(mphen)]NO3 · H2O]", "<", 5.00],
  ["Cc1cc2cccnc2c2ncccc12.F[B-](F)(F)F.O.O=c1c([O-])c(-c2ccccc2)[nH]c2ccccc12.[Cu+2] [compound 4, [Cu(qui)(mphen)]BF4 · H2O]", "=", 5.03],
  ["F[B-](F)(F)F.O=c1c([O-])c(-c2ccccc2)[nH]c2ccccc12.[Cu+2].c1cnc2c(c1)ccc1cccnc12 [compound 2, [Cu(qui)(phen)]BF4]", "=", 4.69],
  ["F[B-](F)(F)F.O=c1c([O-])c(-c2ccccc2)[nH]c2ccccc12.[Cu+2].c1ccc(-c2ccnc3c2ccc2c(-c4ccccc4)ccnc23)cc1 [compound 6, [Cu(qui)(bphen)]BF4]", "=", 5.28]
]}

====

Test system: TNF-α secretion, LPS-stimulated THP-1 cells
Experiment: LPS-induced TNF-α secretion in THP-1 macrophages (ELISA)
Assay type: cell-based, human
Conditions: 0.2 μM, LPS-activated macrophages, 24 h
The reader will find reported increase of TNF-α secretion, factor in comparison to vehicle values listed item by item below.
Parameter: increase of TNF-α secretion, factor in comparison to vehicle

{"columns": ["Compound", "Val"],
 "data": [
  ["F[B-](F)(F)F.O=c1c([O-])c(-c2ccccc2)[nH]c2ccccc12.[Cu+2].c1ccc(-c2ccnc3c2ccc2c(-c4ccccc4)ccnc23)cc1 [compound 6, [Cu(qui)(bphen)]BF4]", 2],
  ["O.O.O.O.O.O=S(=O)([O-])[O-].[Cu+2] [CuSO4·5H2O, reference compound]", 1.4]
]}

====

The reader will find reported IC50 values listed item by item below.
Tested on: A2780cis cisplatin-resistant ovarian carcinoma cells
Assay: In vitro cytotoxicity, MTT assay, A2780cis
Assay type: cell-based, human
Details: 24 h, MTT; read-out: IC50 ± SD, A2780cis

{"columns": ["Compound", "Target system", "Units of measure", "IC50"],
 "data": [
  ["Cc1cc2cccnc2c2ncccc12.F[B-](F)(F)F.O.O=c1c([O-])c(-c2ccccc2)[nH]c2ccccc12.[Cu+2] [compound 4, [Cu(qui)(mphen)]BF4 · H2O]", "A2780cis cisplatin-resistant ovarian carcinoma cells", "nM", 560],
  ["O.O=[N+]([O-])[O-].O=c1c([O-])c(-c2ccccc2)[nH]c2ccccc12.[Cu+2].c1cnc2c(c1)ccc1cccnc12 [compound 1, [Cu(qui)(phen)]NO3 · H2O]", "A2780cis cisplatin-resistant ovarian carcinoma cells", "nM", 830],
  ["Cc1cc2cccnc2c2ncccc12.O.O=[N+]([O-])[O-].O=c1c([O-])c(-c2ccccc2)[nH]c2ccccc12.[Cu+2] [compound 3, [Cu(qui)(mphen)]NO3 · H2O]", "A2780cis cisplatin-resistant ovarian carcinoma cells", "nM", 780],
  ["F[B-](F)(F)F.O=c1c([O-])c(-c2ccccc2)[nH]c2ccccc12.[Cu+2].c1cnc2c(c1)ccc1cccnc12 [compound 2, [Cu(qui)(phen)]BF4]", "A2780cis cisplatin-resistant ovarian carcinoma cells", "nM", 1700],
  ["O.O=[N+]([O-])[O-].O=c1c([O-])c(-c2ccccc2)[nH]c2ccccc12.[Cu+2].c1ccc(-c2ccnc3c2ccc2c(-c4ccccc4)ccnc23)cc1 [compound 5, [Cu(qui)(bphen)]NO3 · H2O]", "A2780cis cisplatin-resistant ovarian carcinoma cells", "nM", 730],
  ["F[B-](F)(F)F.O=c1c([O-])c(-c2ccccc2)[nH]c2ccccc12.[Cu+2].c1ccc(-c2ccnc3c2ccc2c(-c4ccccc4)ccnc23)cc1 [compound 6, [Cu(qui)(bphen)]BF4]", "A2780cis cisplatin-resistant ovarian carcinoma cells", "nM", 700],
  ["N.N.[Cl][Pt][Cl] [cisplatin, reference compound]", "A2780cis cisplatin-resistant ovarian carcinoma cells", "nM", 27000]
]}

====

The reader will find reported pIC50 values listed item by item below.
Tested on: A2780 ovarian carcinoma cells
Experiment: In vitro cytotoxicity, MTT assay, A2780
Format: cell-based, human
Conditions: 24 h, read-out: IC50 ± SD, A2780
pIC50: −log10 of the molar value.
Parameter: pIC50

{"columns": ["Compound", "Parameter", "Val"],
 "data": [
  ["Cc1cc2cccnc2c2ncccc12.F[B-](F)(F)F.O.O=c1c([O-])c(-c2ccccc2)[nH]c2ccccc12.[Cu+2] [compound 4, [Cu(qui)(mphen)]BF4 · H2O]", "pIC50", 6.44],
  ["O.O=[N+]([O-])[O-].O=c1c([O-])c(-c2ccccc2)[nH]c2ccccc12.[Cu+2].c1ccc(-c2ccnc3c2ccc2c(-c4ccccc4)ccnc23)cc1 [compound 5, [Cu(qui)(bphen)]NO3 · H2O]", "pIC50", 6.18],
  ["F[B-](F)(F)F.O=c1c([O-])c(-c2ccccc2)[nH]c2ccccc12.[Cu+2].c1ccc(-c2ccnc3c2ccc2c(-c4ccccc4)ccnc23)cc1 [compound 6, [Cu(qui)(bphen)]BF4]", "pIC50", 6.24],
  ["Cc1cc2cccnc2c2ncccc12.O.O=[N+]([O-])[O-].O=c1c([O-])c(-c2ccccc2)[nH]c2ccccc12.[Cu+2] [compound 3, [Cu(qui)(mphen)]NO3 · H2O]", "pIC50", 6.42],
  ["N.N.[Cl][Pt][Cl] [cisplatin, reference compound]", "pIC50", 4.92],
  ["F[B-](F)(F)F.O=c1c([O-])c(-c2ccccc2)[nH]c2ccccc12.[Cu+2].c1cnc2c(c1)ccc1cccnc12 [compound 2, [Cu(qui)(phen)]BF4]", "pIC50", 6.28],
  ["O.O=[N+]([O-])[O-].O=c1c([O-])c(-c2ccccc2)[nH]c2ccccc12.[Cu+2].c1cnc2c(c1)ccc1cccnc12 [compound 1, [Cu(qui)(phen)]NO3 · H2O]", "pIC50", 6.19]
]}

====

Test system: TNF-α secretion, LPS-stimulated THP-1 cells
Test: LPS-induced TNF-α secretion in THP-1 macrophages (ELISA)
Format: cell-based, human
Settings: 0.2 μM, LPS-activated macrophages, 24 h
Parameter: increase of TNF-α secretion, factor in comparison to vehicle

{"columns": ["Molecule", "Val"],
 "data": [
  ["Cc1cc2cccnc2c2ncccc12.F[B-](F)(F)F.O.O=c1c([O-])c(-c2ccccc2)[nH]c2ccccc12.[Cu+2] [compound 4, [Cu(qui)(mphen)]BF4 · H2O]", 1.6],
  ["O.O=[N+]([O-])[O-].O=c1c([O-])c(-c2ccccc2)[nH]c2ccccc12.[Cu+2].c1ccc(-c2ccnc3c2ccc2c(-c4ccccc4)ccnc23)cc1 [compound 5, [Cu(qui)(bphen)]NO3 · H2O]", 1.8]
]}

Source listed as paper PMC3556092.
